Reported IC50 by item:
- Tested on: SIMA;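 note: growth inhibition of SIMA cells, measured with a cell viability readout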
- PROTOCOL_SUMMARY: cells
- Type: functional, cell-based, Homo sapiens
- CONDITION_INFO: Homo sapiens, SIMA
- Description: SANGER: Inhibition of human SIMA cell growth in a cell viability assay.
READOUT_TYPE: IC50

INSERT INTO assay_data (line_notation, system_name, readout_type, result_value) VALUES
  ('CC1=C2C[C@H]3[C@@H](CC=C4C[C@@H](O)CC[C@@]43C)[C@@H]2CC[C@]12O[C@@H]1C[C@H](C)CN[C@H]1[C@H]2C', 'SIMA', 'IC50', '> 16 µM'),
  ('Cc1cc(Nc2cc(N3CCN(C)CC3)nc(Sc3ccc(NC(=O)C4CC4)cc3)n2)n[nH]1', 'SIMA', 'IC50', '> 2 µM'),
  ('CNC(=O)c1cc(Oc2ccc(NC(=O)Nc3ccc(Cl)c(C(F)(F)F)c3)cc2)ccn1', 'SIMA', 'IC50', '> 4 µM'),
  ('CCc1nc(N)nc(N)c1-c1ccc(Cl)cc1', 'SIMA', 'IC50', '> 20 µM'),
  ('C=CCc1cccc(/C=N/NC(=O)CN2CCN(Cc3ccccc3)CC2)c1O', 'SIMA', 'IC50', '> 2.56 µM'),
  ('Cc1cnc(-c2cnc(NCCNc3ccc(C#N)cn3)nc2-c2ccc(Cl)cc2Cl)[nH]1', 'SIMA', 'IC50', '> 2.56 µM'),
  ('CS(=O)(=O)CCNCc1ccc(-c2ccc3ncnc(Nc4ccc(OCc5cccc(F)c5)c(Cl)c4)c3c2)o1', 'SIMA', 'IC50', '> 2 µM');
